assay.notes: in vitro
stated.conditions: human
pIC50: −log10 of the molar value.
Measured pIC50 accompanies every entry in the list below.

# substance.smiles, pIC50
rows = [
    ("Nc1nc(=O)c([C@@H]2C=C(CO)[C@@H](O)[C@H]2O)c[nH]1", "< 4.00"),
    ("Nc1nc(O)c2[nH]cc([C@@H]3C=C(CO)[C@@H](O)[C@H]3O)c2n1", "< 4.00"),
]

Okay, now this compound:
So what's the measured pIC50 for this one? O=c1[nH]cc([C@@H]2C=C(CO)[C@@H](O)[C@H]2O)c(=O)[nH]1 < 4.00

====

assay.notes: in vitro
stated.conditions: human
Measured IC50 accompanies every entry in the list below.

So what's the measured IC50 for this one? O=c1[nH]cc([C@@H]2C=C(CO)[C@@H](O)[C@H]2O)c(=O)[nH]1 > 100 µM

Then this compound: Nc1nc(O)c2[nH]cc([C@@H]3C=C(CO)[C@@H](O)[C@H]3O)c2n1 > 100 µM

Then this compound: Nc1nc(=O)c([C@@H]2C=C(CO)[C@@H](O)[C@H]2O)c[nH]1 > 100 µM
